System: ER-alpha MCF7
Experiment: ER-alpha MCF7 HCS EC50; stated as measured by in vitro cell proliferation assays of Examples 902 and 903
Type: cell-based
Conditions: Homo sapiens, MCF7, MCF7 cells; Table 2
A collection of compounds and their measured pEC50
# pEC50 = -log10(concentration in molar units)

Field: example entries. Status: answers known.
Asked: Entry "C[C@@H]1Cc2c([nH]c3ccccc23)[C@H](c2ccc(OCCN3CC(CF)C3)cc2)N1C(=O)C(C)(C)F" has what pEC50?
Given back: 7.62

Asked: Entry "CC[C@@H]1Cc2c([nH]c3ccccc23)[C@@H](c2c(F)cc(OCCN3CC(CF)C3)cc2F)N1CC(C)(C)F" has what pEC50?
Given back: 9.33

Continuing:
Asked: Entry "C[C@@H]1Cc2c([nH]c3ccc(F)cc23)[C@@H](c2c(F)cc(OCCN3CC(CF)C3)cc2F)N1CC(C)(C)F" has what pEC50?
Given back: 9.42

Asked: Entry "C[C@@H]1Cc2c([nH]c3ccccc23)[C@@H](c2c(F)cc(OC3CN(CCCF)C3)cc2F)N1C(=O)C(C)(C)F" has what pEC50?
Given back: 9.40
